# TARGET UNDER TEST: HLA-A*24 (human)
# EXPERIMENTAL DETAILS: UV-exchange ELISA, exchange yield grade
ENDPOINT: peptide exchange yield

Example results:
BINDER	peptide exchange yield
VFLPRVTEL [… (SEQ ID NO: 374)]	20 to 49%
YYMELTKLLL [… (SEQ ID NO: 156)]	> 75%

Now, please, on to the next binder.
## Input What peptide exchange yield value was documented for this binder, GYIRGSWQF [… (SEQ ID NO: 196)] ?
## Output > 75%
